Listed binders paired with reported HEK assay Rhesus EC50
Target: rhesus IL-13 (rhesus, UniProt Q864V6 19-132, limits assumed)
Sequence (Q864V6 19-132 limits assumed): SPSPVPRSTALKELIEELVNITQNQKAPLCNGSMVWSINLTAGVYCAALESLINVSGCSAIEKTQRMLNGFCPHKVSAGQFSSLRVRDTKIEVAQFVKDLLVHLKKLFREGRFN
Experiment: cell-based or functional assay
Quantity: HEK assay Rhesus EC50 (nM)

Binder	Quantitative readout
DOM10-53-474 (other, Anti-IL-13 immunoglobulin single variable domain (dAb), monomer) VH: GVQLLESGGGLVQPGGSLRLSCAASGFTFAWYDMGWVRQAPGKGLEWVSSIDWHGEVTYYADSVKGRFTISRDNSKNTLYLQMNSLRAEDTAVYYCATAEDEPGYDYWGQGTLVTVSS	30.2
DOM10-53-567 (other) VH: GVQLLESGGGLVQPGGSLRLSCAASGFVFAWYDMGWVRQAPGKGLEWVSSIDWHGEVTYYADSVKGRFTISRDNSKNTLYLQMNSLRAEDTAVYYCATAEDEPGYDYWGQGTLVTVSS	2.8
DOM10-53-546 (other) VH: GVQLLESGGGLVQPGGSLRLSCAASGFVFPWYDMGWVRQAPGKGLEWVSSIDWKGGKTYYADSVKGRFTISRDNSKNTLYLQMNSLRAEDTAVYYCATAEDEPGYDYWGQGTLVTVSS	11.4
